Where these numbers come from: paper PMC7793009

target-of-assay: constitutively expressed firefly luciferase (ce-FF) (Photinus pyralis, UniProt P08659)
Sequence (P08659 whole entry): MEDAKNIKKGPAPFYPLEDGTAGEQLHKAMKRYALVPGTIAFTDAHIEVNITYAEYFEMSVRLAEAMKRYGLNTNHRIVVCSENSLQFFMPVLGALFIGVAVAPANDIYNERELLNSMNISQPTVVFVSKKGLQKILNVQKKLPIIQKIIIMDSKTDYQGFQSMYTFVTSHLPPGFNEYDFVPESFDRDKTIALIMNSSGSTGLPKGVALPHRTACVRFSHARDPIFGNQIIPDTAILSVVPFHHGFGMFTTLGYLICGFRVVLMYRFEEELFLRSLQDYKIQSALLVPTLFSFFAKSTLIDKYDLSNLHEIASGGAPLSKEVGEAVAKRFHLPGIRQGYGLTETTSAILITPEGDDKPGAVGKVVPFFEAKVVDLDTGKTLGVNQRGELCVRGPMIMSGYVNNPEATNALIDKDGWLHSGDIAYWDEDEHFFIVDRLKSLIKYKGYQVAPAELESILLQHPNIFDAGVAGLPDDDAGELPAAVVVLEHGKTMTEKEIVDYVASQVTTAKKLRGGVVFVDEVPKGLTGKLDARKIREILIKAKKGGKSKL
measurement-description: cell-based
Type: cell-based
attribute-measured: IC50

[[record]]
line_notation = "COc1cc([C@@H]2c3cc4c(cc3[C@H](O)[C@H]3COC(=O)[C@H]23)OCO4)cc(OC)c1OC"
target_of_assay = "constitutively expressed firefly luciferase (ce-FF) (Photinus pyralis, UniProt P08659)"
measured = "> 50 µM"


====

target-of-assay: constitutively expressed firefly luciferase (ce-FF) (Photinus pyralis)
measurement-description: cell-based
Assay type: cell-based
condition-set: read-out: Ce-FF IC50
pIC50: −log10 of the molar value.
attribute-measured: pIC50

[[record]]
line_notation = "Nc1ncnc2c1c(I)cn2[C@@H]1O[C@H](CO)[C@@H](O)[C@H]1O"
target_of_assay = "constitutively expressed firefly luciferase (ce-FF) (Photinus pyralis)"
measured = 4.82


====

Test system: NF-κB
measurement-description: cells
Assay type: cell-based
condition-set: Homo sapiens, HEK-293T, 6 h, read-out: NF-κB IC50
attribute-measured: IC50

[[record]]
compound = "COc1cc([C@@H]2c3cc4c(cc3[C@H](O)[C@H]3COC(=O)[C@H]23)OCO4)cc(OC)c1OC [Podophyllotoxin, podophyllotoxin]"
measured = "> 50 µM"


====

System: HEK293T cells
condition-set: 24 h, ATP content (CellTiter-Glo)
attribute-measured: CC50

[[record]]
compound = "Nc1ncnc2c1c(I)cn2[C@@H]1O[C@H](CO)[C@@H](O)[C@H]1O [5-iodotubercidin]"
attribute_measured = "CC50"
measured = "> 50 µM"


====

measurement-description: in vitro
condition-set: human
attribute-measured: CC50 at 24 h

[[record]]
line_notation = "COc1cc([C@@H]2c3cc4c(cc3[C@H](O)[C@H]3COC(=O)[C@H]23)OCO4)cc(OC)c1OC"
attribute_measured = "CC50 at 24 h"
measured = "> 50 µM"

